- RUN CONDITIONS: in methanol, 288.15 K
OBSERVABLE: solubility (mole fraction)
Give bare numbers.

Problem: // returns reported solubility (mole fraction) for input `O=Cc1cc(C=O)cc(C=O)c1`
Solution: 0.00442

----------
- RUN CONDITIONS: in isobutanol, 318.15 K
OBSERVABLE: solubility (mole fraction)
Numbers only.

Problem: What solubility (mole fraction) value was documented for this compound, `O=Cc1cc(C=O)cc(C=O)c1` ?
Solution: 0.00387

----------
- RUN CONDITIONS: in acetone, 288.15 K
OBSERVABLE: solubility (mole fraction)

Problem: Record request: solubility (mole fraction) value, item `O=Cc1cc(C=O)cc(C=O)c1`
Solution: 0.0112
